assay: inhibitors of TNFa-induced NFkB p65 translocation, primary screen, imaging, HUVEC, MLSMR starter and 10KST1 sets (AID 438); details: HUVEC TNFa-induced p65 nuclear translocation; measured here: nuclei count (cytotoxicity indicator), at 2.08 µM;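 also: compound added about 3h40 before a 20 min TNFalpha stimulation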
Recorded cell count for the following compounds
API note: the answer field is a bare number with no unit suffix.

Cc1cc(NC(=O)c2cnn3cccnc23)no1    467
COc1cc(-c2c(C#N)c(N)nc3c2CCCC3)cc(OC)c1OC    620
COc1ccc(-c2cc(C(=O)NCCc3ccccc3)no2)cc1OC    364
Cc1nnc(SCc2cnc(-c3ccccc3)o2)[nH]c1=O    332
O=C(COc1nnnc2ccccc12)N1CCCc2ccccc21    327

Task: Consider the compound "CCc1nc(N[C@@H](Cc2c[nH]c3ccccc23)C(=O)O)c2oc3ccccc3c2n1" . State its measured cell count.
Result: 570

Task: Consider the compound "CCn1c(CC(=O)Nc2cccc(OC)c2)nnc1SCC(=O)Nc1nccs1" . State its measured cell count.
Result: 835

Task: Consider the compound O=C1NC(c2ccccc2)(C(F)(F)F)SC2=NCCCN12 (centres undefined) . State its measured cell count.
Result: 429

Task: Consider the compound "Cc1ccc(-c2cc(C(F)(F)F)n3ncc(C(=O)O)c3n2)cc1" . State its measured cell count.
Result: 412

Task: Consider the compound "COc1ccccc1NS(=O)(=O)c1ccc(NC(=O)c2nc3ncccn3n2)cc1" . State its measured cell count.
Result: 266

Task: Consider the compound "CCOC(=O)C1CCN(C(=O)Nc2ccc(Cl)cc2Cl)CC1" . State its measured cell count.
Result: 262

Task: Consider the compound Cc1cc2oc(C(=O)NC3CCS(=O)(=O)C3)c(C)c2cc1C (centres undefined) . State its measured cell count.
Result: 328

====

experiment: inhibitors of TNFa-induced NFkB p65 translocation, primary screen, imaging, HUVEC, MLSMR starter and 10KST1 sets (AID 438); settings: HUVEC TNFa-induced p65 nuclear translocation; measured here: nuclei count (cytotoxicity indicator), at 2.08 µM;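 also: compound added about 3h40 before a 20 min TNFalpha stimulation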
valueKind: cell count
API note: the answer field is a bare number with no unit suffix.

CN(C(=O)c1ccno1)c1nnc(-c2cnccn2)s1    596
COC(=O)c1ccccc1NC(=O)c1cc(-c2ccc(OC)c(OC)c2)on1    443
O=C(COc1ccccc1Cl)OCC(=O)N1CCN(S(=O)(=O)c2ccccc2)CC1    270
COc1ccc(Cn2c(C)nc3c(c2=O)c2nc4ccccc4nc2n3Cc2ccco2)cc1    375
O=C(c1ccccc1)c1coc2ccc(O)c(CN3CCOCC3)c12    651

Task: Consider the molecule "Cc1ccc(NS(=O)(=O)c2cn(C)cn2)cc1" . State its measured cell count.
Result: 491

====

biological target: Voltage-gated potassium channel subunit beta-2 (Rattus norvegicus) (UniProt P62483); assay: enhancers of rat Kvbeta2 NADPH turnover – biochemical, NADPH fluorescence, primary screen (AID 623); settings: Recombinant KvBeta, NADPH fluorescence decrease slope, 10 min; at 10 µM; stronger effect = lower value;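 also: fluorescence intensity change per second fitted from 20 to 320 s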
Sequence (P62483 whole entry, looked up): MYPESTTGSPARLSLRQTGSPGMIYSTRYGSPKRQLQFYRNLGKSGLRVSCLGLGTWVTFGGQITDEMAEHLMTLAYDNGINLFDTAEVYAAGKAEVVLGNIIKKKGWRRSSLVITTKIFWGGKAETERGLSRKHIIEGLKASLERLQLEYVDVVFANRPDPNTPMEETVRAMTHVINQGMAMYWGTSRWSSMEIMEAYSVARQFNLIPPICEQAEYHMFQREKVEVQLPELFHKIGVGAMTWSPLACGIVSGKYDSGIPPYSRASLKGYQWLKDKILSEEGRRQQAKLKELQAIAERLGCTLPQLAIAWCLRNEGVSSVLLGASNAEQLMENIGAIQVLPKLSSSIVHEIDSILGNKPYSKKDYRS
Recorded NADPH fluorescence slope for the following molecules
API note: the answer field is a bare number with no unit suffix.

Here's what some known entries look like.
CCC(=O)N1CCc2cc(Br)cc(S(=O)(=O)CCC(=O)NCC3CCCO3)c21 (centres undefined)    -3.4e-05
COC(=O)c1ccccc1NC(=O)CSc1nnnn1C1CCCCC1    -3.8e-05
O=C(OCc1cc2ccccc2[nH]c1=O)c1ccncc1    -4.4e-05
CC1CCN(C(=O)C2CCN(S(=O)(=O)c3cnc[nH]3)CC2)CC1    -1.4e-05
CC(C)(C)c1cc(C(=S)N2CCN(CCO)CC2)cc(C(C)(C)C)c1O    -4.4e-05
Cn1c(=O)oc2cc(S(=O)(=O)NCCC(=O)N3CCc4ccccc4C3)ccc21    -9.1e-05
COc1ccccc1-c1c(C)nn2c(C)c(C(C)=O)cnc12    -3.6e-05
CC1C(O)=C(c2nc3ccccc3[nH]2)C(=N)N1c1ccccc1 (centres undefined)    -2.5e-05

Now for another entry.
Task: Report NADPH fluorescence slope on Voltage-gated potassium channel subunit beta-2 (Rattus norvegicus) (UniProt P62483) for this entry: "O=c1oc(-c2ccco2)nc2ccccc12"
Result: -4.2e-05

====

test: reduction of polyQ htt aggregates in cells – imaging, exon1htt(103Q)mCFP cells, high-content imaging, primary screen (AID 483); details: exon1htt(103Q)mCFP cell line, aggregate imaging, at 2 µM; measured here: cell count, toxicity;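 also: compound exposure lasted 3 days before fixation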;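 as to nuclei count: percent of the per-plate median nuclei count of sample wells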
Recorded nuclei count for the following compounds
Give the number; % is assumed, so skip it.

Here's what some known entries look like.
CN1CCN(C(=O)c2cnn3c(C(F)F)cc(C4CC4)nc23)CC1    63.5
COC(=O)c1c(NC(=O)C2CC=CCC2C(=O)O)sc(C(N)=O)c1C (configuration not stated)    96.4

Task: Consider the compound "Nc1cc(C(=O)O)ccc1Nc1ccccc1" . State its measured nuclei count.
Result: 86.5

====

biological target: Voltage-gated potassium channel subunit beta-2 (Rattus norvegicus) (UniProt P62483); test: inhibitors of rat Kvbeta2 reductase activity – biochemical, NADPH fluorescence, primary screen (AID 622); details: recombinant KvBeta, 4-cyanobenzaldehyde reduction, at 10 µM, stronger effect = higher value;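 also: slope of raw intensity against log time taken from 70 to 1610 s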
Kindly note that classification relies on fluorescence slope with these boundaries: lower bin: < -0.5; middle bin: ≥ -0.5 and < -0.4; upper bin: ≥ -0.4

# count of solved cases: 3
Cn1c(Cc2csc(N)n2)nnc1SCC(=O)NC1CCCCC1    middle bin
Cc1ccccc1CSCC(=O)c1c(N)n(C)c(=O)n(C)c1=O    middle bin
Cc1ccc(C2CC(c3cccc(Br)c3)Nc3nnnn32)cc1 (configuration not stated)    lower bin

Task: In plain terms, what class is "O=C(c1ccccc1)c1coc2ccc(O)c(CN3CCOCC3)c12" ?
Result: lower bin

====

molecular target: Voltage-gated potassium channel subunit beta-2 (Rattus norvegicus) (UniProt P62483); test: inhibitors of rat Kvbeta2 reductase activity – biochemical, NADPH fluorescence, primary screen (AID 622); details: recombinant KvBeta, 4-cyanobenzaldehyde reduction, at 10 µM, stronger effect = higher value;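 also: slope of raw intensity against log time taken from 70 to 1610 s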
Please note: MET applies when fluorescence slope is -0.5 or greater, and NOT MET applies otherwise.

C=CCNC(=O)CNS(=O)(=O)c1ccc(F)cc1    NOT MET
N#Cc1cnc(SCC(=O)Nc2ccccc2C(F)(F)F)nc1N    MET
Cn1cc(C(=O)NC2CCCCCCC2)c(=O)c2cc(S(=O)(=O)N3CCCC3)ccc21    MET

Task: Please indicate if the recorded fluorescence slope for "Cc1ccc(S(=O)(=O)NCCCNC(=O)N2CCOCC2)cc1" meets or exceeds -0.5.
Result: MET

Task: Please indicate if the recorded fluorescence slope for "CCOC(=O)CNC(=O)c1c(C)nn(-c2ccccc2)c1Cl" meets or exceeds -0.5.
Result: NOT MET

Task: Please indicate if the recorded fluorescence slope for "Cc1ccc(Oc2ccc(-c3nc(N)nc(N)n3)cc2)cc1" meets or exceeds -0.5.
Result: NOT MET

====

experiment: loss of swimming-algae plug formation – whole organism, Chlamydomonas reinhardtii, WT vs cilia-less mutant, absorbance, 96-well, primary screen (AID 463189); details: Chlamydomonas reinhardtii gravitaxis, OD600 absorbance, 2 days; at 10 µM;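 also: 0% = wild type cc124 cells in DMSO and 100% = ciliumless bld1 mutant cells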
Activity calls are given as the source filed them.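 Rule for the calls: active = inhibition at or above 50% relative to wild type and mutant plate controls; inactive = inhibition below 50%.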
Hi! Could you answer with just one of these? Yes for active, No for inactive

C=C[C@H]1CN2CCC1C[C@@H]2[C@@H](O)c1ccnc2ccc(OC)cc12 (stereo partly drawn)    No
CC1=C(CC(=O)O)c2cc(F)ccc2/C1=C\c1ccc(S(C)=O)cc1 (stereo not drawn)    No
CC(C)C[C@H]1C(=O)N2CCC[C@H]2[C@]2(O)O[C@](NC(=O)[C@@H]3C=C4c5cccc6[nH]c(Br)c(c56)C[C@H]4N(C)C3)(C(C)C)C(=O)N12    No
CC(=O)NNC(=O)N1Cc2ccccc2Oc2ccc(Cl)cc21    No
CC(C)C1C2CCC(C2)C1N (stereo not drawn)    No
FC(F)(F)c1cc(CO[C@H]2CCCN[C@H]2c2ccccc2)cc(C(F)(F)F)c1    No
Nc1cc(=O)[nH]c(N)n1    No
CCn1ccnc1CC1COc2ccccc2O1 (stereo not drawn)    No

Shifting focus to the compound that follows.
Task: Called result for "O=C1NCN(c2ccccc2)C12CCN(CCCC(c1ccc(F)cc1)c1ccc(F)cc1)CC2"
Result: No

====

experiment: reduction of polyQ htt aggregates in cells – imaging, exon1htt(103Q)mCFP cells, high-content imaging, primary screen (AID 483); conditions: exon1htt(103Q)mCFP cell line, aggregate imaging, at 2 µM; stronger effect = higher value;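 also: compound exposure lasted 3 days before fixation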
Recorded inhibition of aggregation for the following compounds
Give the number; % is assumed, so skip it.

Here's what some known entries look like.
COc1ccc2c(c1OC)C(=O)OC2Nn1cncn1 (stereo unspecified)    -11.1
COc1ccc(CNC(=O)Cn2nc(C(F)(F)F)c3c2CCC3)cc1    -8

Now for another entry.
Task: Consider the compound "O=C(CN1CCN(C(=O)c2ccccc2)CC1)Nc1ncc(Br)cc1Br" . State its measured inhibition of aggregation.
Result: -6.8
